Biological target: UniProt P56817
Experiment: In Vitro BACE Cell-based Assay (HEK cell assay): Aβ40 in conditioned medium of cells stably expressing Amyloid Precursor Protein, sandwich ELISA
Settings: Table III; IC50's in uM ranges; read-out: HEK cell assay
Listed here are molecules together with their documented IC50.

Solved cases below.
# molecule, IC50
records = [
    ("NC1=N[C@@]2(CO1)c1cc(-c3cccnc3)ccc1Oc1cnc(-c3cccnc3)cc12", "< 0.1 µM"),
    ("NC1=N[C@]2(CO1)c1cc(Oc3ccccn3)ccc1Oc1ccc(-c3cccnc3)cc12", "0.1 to 1 µM"),
    ("CC(C)(C)CC(=O)c1ccc2c(c1)[C@]1(COC(N)=N1)c1cc(-c3ccc(F)nc3)ccc1O2 [150a]", "0.1 to 1 µM"),
    ("Cc1cncc(-c2ccc3c(c2)[C@@]2(COC(N)=N2)c2cc(OCC(C)(C)O)ccc2O3)c1", "< 0.1 µM"),
]

Pending molecule:
Can you share its IC50? I mean this molecule: CC(C)(O)CCc1ccc2c(c1)[C@]1(COC(N)=N1)c1cc(-c3cccnc3)ccc1O2
< 0.1 µM

---

Molecular target: BACE1 (Homo sapiens)
Experiment: In Vitro Enzymatic BACE FRET (Fluorescence Resonance Energy Transfer) Assay
Type: biochemical
Settings: read-out: BACE1 FRET assay
Protocol: In Vitro Enzymatic BACE FRET (Fluorescence Resonance Energy Transfer) Assay (Enzyme Assay Data in the Example Tables I, II, III & IV) The assay buffer used in this screen is 0.05 M acetate, pH 4.2, 10% DMSO final, 100 uM genapol (which is a nonionic detergent, below its Critical Micelle Concentration). […] The FRET assay is terminated with by addition of Tris buffer, which raises the pH to neutrality, and the fluorescence is determined. […]
pIC50: −log10 of the molar value.
Listed here are compounds together with their documented pIC50.

Can you share its pIC50? I mean this compound: COC(C)(C)C#Cc1cc(F)c2c(c1)[C@]1(COC(N)=N1)c1cc(-c3cncnc3)ccc1O2 [Example 673]
> 7.00

What do we get for COC(C)(C)C#Cc1cc(F)c2c(c1)[C@@]1(COC(N)=N1)c1cc(-c3cncnc3)ccc1O2 [compound 674] ?
6.00 to 7.00

What do we get for CC(C)(F)COc1cnc2c(c1)[C@]1(COC(N)=N1)c1cc(-c3ccccc3)ccc1O2 [compound 452] ?
> 7.00

---

Listed here are compounds together with their documented IC50.
Biological target: BACE1 (Homo sapiens)
Assay: In Vitro BACE Cell-based Assay (HEK cell assay): Aβ40 in conditioned medium of cells stably expressing Amyloid Precursor Protein, sandwich ELISA
Details: read-out: HEK cell assay

Can you share its IC50? I mean this compound: NC1=N[C@]2(CO1)c1cc(Br)ccc1Oc1ccc(-c3cncnc3)cc12
100 to 1000 nM

What do we get for CC(C)(C)C#Cc1cnc2c(c1)[C@]1(COC(N)=N1)c1cc(-c3ccc(F)nc3)ccc1O2 ?
< 100 nM

What do we get for COC(=O)/C=C/c1ccc2c(c1)[C@@]1(COC(N)=N1)c1cc(-c3cncnc3)ccc1O2 ?
100 to 1000 nM

What do we get for CC(C)(C)COc1ccc2c(c1)[C@@]1(COC(N)=N1)c1cc(-c3cncs3)ccc1O2 ?
100 to 1000 nM

What do we get for CC(C)NC(=O)c1ccc2c(c1)[C@@]1(COC(N)=N1)c1cc(OCC(C)(C)C)ccc1O2 ?
< 100 nM

What do we get for Cc1occc1-c1ccc2c(c1)[C@@]1(COC(N)=N1)c1cc(OCC(C)(C)C)ccc1O2 ?
1000 to 5000 nM

---

Listed here are compounds together with their documented IC50.
Target: BACE1 (Homo sapiens)
Assay: In Vitro Enzymatic BACE FRET (Fluorescence Resonance Energy Transfer) Assay
Assay type: biochemical
Conditions: read-out: BACE1 FRET assay

Solved cases below.
# compound, IC50
data = [
    ("NC1=N[C@@]2(CO1)c1cc(-c3cncnc3)ccc1Oc1c(F)cc(OCC3CC3(F)F)cc12 (stereo partly drawn)", "< 100 nM"),
    ("CC1(COc2cc3c(cc2F)Oc2ccc(-c4cncnc4)cc2[C@@]32COC(N)=N2)COC1", "< 100 nM"),
    ("COC1CN(c2cnc3c(c2)[C@]2(COC(N)=N2)c2cc(-c4cc(F)ccc4F)ccc2O3)C1", "< 100 nM"),
]

Can you share its IC50? I mean this compound: CC(C)(C)/C=C/c1ccc2c(c1)[C@]1(COC(N)=N1)c1cc(-c3cncnc3)ccc1O2
< 100 nM

What do we get for Cc1cc(-c2ccc3c(c2)[C@]2(COC(N)=N2)c2cc(-c4cccnc4)ccc2O3)on1 ?
< 100 nM

What do we get for CC1(C)CN(c2cc(F)c3c(c2)[C@@]2(COC(N)=N2)c2cc(-c4cncnc4)ccc2O3)CCO1 ?
100 to 1000 nM

What do we get for COC(C)(C)C#Cc1cnc2c(c1)[C@]1(COC(N)=N1)c1cc(-c3ccnc(F)c3)ccc1O2 ?
1000 to 5000 nM

What do we get for CC(C)(O)COc1ccc2c(c1Br)[C@]1(COC(N)=N1)c1cc(-c3cccnc3)ccc1O2 ?
< 100 nM

What do we get for NC1=N[C@@]2(CO1)c1cc(-c3ccccc3F)ccc1Oc1ncc(N3CCOCC3)cc12 ?
< 100 nM

---

Target: BACE1 (Homo sapiens, UniProt P56817)
Sequence (P56817 46-501, species assumed): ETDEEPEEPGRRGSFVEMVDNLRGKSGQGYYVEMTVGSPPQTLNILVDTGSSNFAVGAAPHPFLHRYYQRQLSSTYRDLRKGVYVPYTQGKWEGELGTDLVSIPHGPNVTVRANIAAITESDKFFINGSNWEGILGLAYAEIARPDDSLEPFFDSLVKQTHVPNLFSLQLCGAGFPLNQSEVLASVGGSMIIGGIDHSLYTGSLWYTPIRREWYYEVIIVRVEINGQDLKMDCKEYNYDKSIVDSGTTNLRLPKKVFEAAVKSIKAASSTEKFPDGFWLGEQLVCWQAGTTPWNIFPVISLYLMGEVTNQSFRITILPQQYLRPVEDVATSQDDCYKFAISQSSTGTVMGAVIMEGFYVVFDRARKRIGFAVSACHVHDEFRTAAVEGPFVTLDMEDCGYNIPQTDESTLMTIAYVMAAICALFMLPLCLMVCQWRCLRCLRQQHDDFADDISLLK
Assay: In Vitro Enzymatic BACE FRET (Fluorescence Resonance Energy Transfer) Assay
Type: biochemical
Conditions: Table IV, class symbols; read-out: BACE1 FRET assay
pIC50: −log10 of the molar value.
property-measured: pIC50

Can you share its pIC50? I mean this compound: COc1ccc2c(c1)[C@]1(COC(N)=N1)c1cc(NC(=O)c3cc(Cl)ccn3)ccc1O2 [compound 534]
5.30 to 6.00

What do we get for NC1=N[C@@]2(CO1)c1cc(-c3cccnc3)ccc1Oc1cnc(C3CCOCC3)cc12 [compound 801] ?
> 7.00

What do we get for COc1ccc(-c2ccc3c(c2)[C@]2(COC(N)=N2)c2cc(-c4cncnc4)ccc2O3)cc1OC [compound 830] ?
> 7.00

What do we get for CC(C)CCCOc1nccc2c1[C@@]1(COC(N)=N1)c1cc(-c3cccnc3)ccc1O2 [compound 843] ?
< 5.30

---

Target: BACE1 (Homo sapiens)
Assay: In Vitro BACE Cell-based Assay (HEK cell assay): Aβ40 in conditioned medium of cells stably expressing Amyloid Precursor Protein, sandwich ELISA
Conditions: Table II; Aβ40, 24 h incubation; read-out: HEK cell assay
pIC50: −log10 of the molar value.
Listed here are compounds together with their documented pIC50.

Solved cases below.
# compound, endpoint-value
measured = [
    ("Cn1cc(-c2ccc3c(c2)[C@@]2(COC(N)=N2)c2cc(OCC(C)(C)C)ccc2O3)cn1 [Example 82]", "5.30 to 6.00"),
    ("NC1=N[C@]2(CO1)c1cc(OCC3CCCO3)ccc1Oc1ccc(-c3cncnc3)cc12 (some centres unmarked) [Example 60]", "> 7.00"),
    ("Cc1ccncc1-c1ccc2c(c1)[C@@]1(COC(N)=N1)c1cc(OCC(C)(C)C)ccc1O2 [Example 86]", "6.00 to 7.00"),
    ("CC(C)(C)COc1ccc2c(c1)[C@]1(COC(N)=N1)c1cc(-c3cccnc3)cnc1O2 [Example 92]", "> 7.00"),
]

Can you share its pIC50? I mean this compound: CN(C)CC#Cc1ccc2c(c1)[C@@]1(COC(N)=N1)c1cc(OCC(C)(C)C)ccc1O2 [Example 89]
6.00 to 7.00

---

Biological target: BACE1 (Homo sapiens, UniProt P56817)
Assay: In Vitro BACE Cell-based Assay (HEK cell assay): Aβ40 in conditioned medium of cells stably expressing Amyloid Precursor Protein, sandwich ELISA
Settings: read-out: HEK cell assay
pIC50: −log10 of the molar value.
property-measured: pIC50

Can you share its pIC50? I mean this compound: CC(C)(C)COc1ccc2c(c1)[C@]1(COC(N)=N1)c1cc(-c3c[nH]cn3)ccc1O2 [compound 978]
5.30 to 6.00

What do we get for CC1(COc2ccc3c(c2)[C@@]2(COC(N)=N2)c2cc(C#CC4CC4)cnc2O3)COC1 [compound 967] ?
6.00 to 7.00

What do we get for CC(C)(C)COc1ccc2c(c1)[C@]1(COC(N)=N1)c1cc(C3CCOCC3)ccc1O2 [compound 747] ?
5.30 to 6.00

What do we get for CC(C)(O)COc1ccc2c(c1C#N)[C@]1(COC(N)=N1)c1cc(-c3cccnc3)ccc1O2 [compound 929] ?
6.00 to 7.00

What do we get for CCOC(=O)c1ccc(-c2ccc3c(c2)[C@]2(COC(N)=N2)c2cc(-c4cccnc4)ccc2O3)o1 [compound 725] ?
6.00 to 7.00
